The measurements presented in this section are drawn from the supplement of paper PMC11624193.

- TARGET_OR_SYSTEM: PARP1 L713F-nLuc biosensor (HCT116)
- ASSAY: PARP1 L713F-nLuc/akaLuc ratio relative to DMSO control (biosensor stabilization) (fold change); higher = more PARP1 biosensor stabilization (target engagement / stabilizer), active = hit call of the paper
- DETAILS: stock concentration (mM; final µM = stock mM x 1): 10; 24 h
Where a name gives a salt, the structure may show the parent alone.
Quick reference: PARP1 L713F-nLuc/akaLuc ratio of the listed items.

MOLECULE: CCCCCCCCCCCCCC(=S)NCCCC[C@H](NC(=O)OCc1ccccc1)C(=O)Nc1ccccc1
PARP1 L713F-nLuc/akaLuc ratio: 1.08
--
MOLECULE: O=C(O)c1c[nH]c2cc(Cl)c(-c3ccc(C4(O)CCC4)cc3)cc12
PARP1 L713F-nLuc/akaLuc ratio: 0.446
--
MOLECULE: COc1ccc(S(=O)(=O)Nc2cc(-c3csc(C#N)c3)ccc2C)cc1
PARP1 L713F-nLuc/akaLuc ratio: 1.24
--
MOLECULE: NC(=O)c1cccc(N)c1 [3-Aminobenzamide]
PARP1 L713F-nLuc/akaLuc ratio: 0.995
--
MOLECULE: O=C(O)c1ccc2c(c1)nc(NC(=O)c1ccccc1)n2CCCc1ccccc1
PARP1 L713F-nLuc/akaLuc ratio: 1.26
--
MOLECULE: N#Cc1cc(F)cc(Oc2ccc(S(=O)(=O)C(F)F)c3c2CC(F)(F)[C@H]3O)c1
PARP1 L713F-nLuc/akaLuc ratio: 0.774
--
MOLECULE: CNCCN(C)Cc1c[nH]nc1-c1ccc(O[C@H]2C[C@H](OCCC3CCOCC3)C2)cc1
PARP1 L713F-nLuc/akaLuc ratio: 0.64
--
MOLECULE: N#Cc1ccc(COC[C@H]2O[C@@H](n3c(NCc4ccc(Cl)c(Cl)c4)nc4c(N)ncnc43)[C@H](O)[C@@H]2O)cc1
PARP1 L713F-nLuc/akaLuc ratio: 0.717
--
MOLECULE: N#CCNC(=O)c1ccc(-c2ccnc(Nc3ccc(N4CCOCC4)cc3)n2)cc1
PARP1 L713F-nLuc/akaLuc ratio: 0.661
--
MOLECULE: N#Cc1ccc2ncnc(NCCc3ccccc3)c2c1
PARP1 L713F-nLuc/akaLuc ratio: 1.24
--
MOLECULE: O=C(NNS(=O)(=O)c1ccccc1)c1cc(-c2ccnnc2)ccc1F
PARP1 L713F-nLuc/akaLuc ratio: 1.16
--
MOLECULE: O=C(/C=C\n1cnc(-c2cc(C(F)(F)F)cc(C(F)(F)F)c2)n1)NNc1ccccn1 [Verdinexor (KPT-335)]
PARP1 L713F-nLuc/akaLuc ratio: 0.35
--
MOLECULE: C[C@]12CC[C@@H]3c4ccc(O)cc4C[C@@H](CCCCCCCCC[S+]([O-])CCCC(F)(F)C(F)(F)F)[C@H]3[C@@H]1CC[C@@H]2O (stereo partly drawn)
PARP1 L713F-nLuc/akaLuc ratio: 0.949
--
MOLECULE: O=C(NOCCO)c1ccc2cncn2c1Nc1ccc(I)cc1F
PARP1 L713F-nLuc/akaLuc ratio: 0.421
--
MOLECULE: CNc1cc(Nc2cccn(-c3ccccn3)c2=O)nn2c(C(=O)N[C@@H]3C[C@@H]3F)cnc12
PARP1 L713F-nLuc/akaLuc ratio: 0.72
--
MOLECULE: CCOC(=O)CCNc1cc(N2CCc3ccccc3CC2)nc(-c2ccccn2)n1 [GSK-J4 (hydrochloride)]
PARP1 L713F-nLuc/akaLuc ratio: 1.45
--
MOLECULE: Cc1c(Cn2c(C)nc3c(C(=O)O)cc(N4CCOCC4)cc32)cccc1C(F)(F)F
PARP1 L713F-nLuc/akaLuc ratio: 1.38
--
MOLECULE: CCN(c1cc(-c2ccc(CN3CCOCC3)cc2)cc(C(=O)NCc2c(C)cc(C)[nH]c2=O)c1C)C1CCOCC1 [Tazemetostat]
PARP1 L713F-nLuc/akaLuc ratio: 0.962

----------
- TARGET_OR_SYSTEM: PARP1 L713F-nLuc biosensor (HCT116)
- ASSAY: PARP1 L713F-nLuc/akaLuc ratio relative to DMSO control (biosensor stabilization) (fold change); higher = more PARP1 biosensor stabilization (target engagement / stabilizer), active = hit call of the paper
- DETAILS: stock concentration (mM; final µM = stock mM x 1): 10; 24 h
Where a name gives a salt, the structure may show the parent alone.
QUANTITY_KIND: PARP1 L713F-nLuc/akaLuc ratio

COMPOUND: O=C1CCC(N2C(=O)c3ccccc3C2=O)C(=O)N1 (stereo not drawn) [Thalidomide]
QUANTITY_KIND: PARP1 L713F-nLuc/akaLuc ratio
NUMERIC_READOUT: 0.757
//
COMPOUND: Cc1cc(C)cc(Oc2ccc(CNC(=O)[C@H](C)N)cc2C)c1
QUANTITY_KIND: PARP1 L713F-nLuc/akaLuc ratio
NUMERIC_READOUT: 1.24
//
COMPOUND: Cc1cc(-c2ccccc2)cc(C(=O)NNS(=O)(=O)c2ccccc2)c1F
QUANTITY_KIND: PARP1 L713F-nLuc/akaLuc ratio
NUMERIC_READOUT: 0.665
//
COMPOUND: N[C@H]1CC[C@H](N[C@@H]2C[C@H]2c2ccccc2)CC1 [Iadademstat (dihydrochloride)]
QUANTITY_KIND: PARP1 L713F-nLuc/akaLuc ratio
NUMERIC_READOUT: 1.06
//
COMPOUND: O=C(Nc1ccc(O)c(C(=O)O)c1)c1cccc(NC(=O)c2ccco2)c1
QUANTITY_KIND: PARP1 L713F-nLuc/akaLuc ratio
NUMERIC_READOUT: 1.19
//
COMPOUND: NS(=O)(=O)NCCNc1nonc1/C(=N/O)Nc1ccc(F)c(Br)c1
QUANTITY_KIND: PARP1 L713F-nLuc/akaLuc ratio
NUMERIC_READOUT: 0.587
//
COMPOUND: O=c1ncn2nc(Sc3ccc(F)cc3F)ccc2c1-c1c(Cl)cccc1Cl
QUANTITY_KIND: PARP1 L713F-nLuc/akaLuc ratio
NUMERIC_READOUT: 0.808
//
COMPOUND: COc1ccc(S(=O)(=O)Nc2cccnc2Nc2ccc(O)cc2)cc1
QUANTITY_KIND: PARP1 L713F-nLuc/akaLuc ratio
NUMERIC_READOUT: 1.28

----------
- TARGET_OR_SYSTEM: PARP1 L713F-nLuc biosensor (HCT116)
- ASSAY: PARP1 L713F-nLuc/akaLuc ratio relative to DMSO control (biosensor stabilization) (fold change); higher = more PARP1 biosensor stabilization (target engagement / stabilizer), active = hit call of the paper
- DETAILS: stock concentration (mM; final µM = stock mM x 1): 10; 24 h
Classify as follows. Reported PARP1 L713F-nLuc/akaLuc ratio greater than or equal to 0.8: Met. Reported PARP1 L713F-nLuc/akaLuc ratio below: Not met.

MOLECULE: O=C(NCc1ccncc1)C12CC3CC(C1)CC(c1ccc(Cl)cc1)(C3)C2
LABEL: Not met
--
MOLECULE: CN(Cc1cnc2nc(N)nc(N)c2n1)c1ccc(C(=O)N[C@@H](CCC(=O)O)C(=O)O)cc1 [Methotrexate]
LABEL: Not met
--
MOLECULE: N[C@H]1C[C@@H]1c1ccc(-c2cccc(O)c2)cc1
LABEL: Not met
--
MOLECULE: CC(CCc1ccccn1)(CCc1ccccn1)C(=O)c1ccccc1
LABEL: Met
--
MOLECULE: O=C(NO)c1ccc(CN2CCCc3cc(Cl)ccc32)cc1
LABEL: Met
--
MOLECULE: O=C(Nc1ccnc(NC(=O)C2CC2)c1)c1c(Cl)cccc1Cl
LABEL: Met
--
MOLECULE: CC(C)Oc1ccc(-c2c[nH]cc2CN(C)CCN)cc1
LABEL: Met
--
MOLECULE: NC(=O)C1CCCc2c1[nH]c1ccc(Cl)cc21 (stereo not given)
LABEL: Met
--
MOLECULE: CC(C)NC[C@@H](C(=O)N1CCN(c2ncnc3c2[C@H](C)C[C@H]3O)CC1)c1ccc(Cl)cc1
LABEL: Not met

----------
- TARGET_OR_SYSTEM: PARP1 L713F-nLuc biosensor (HCT116)
- ASSAY: PARP1 L713F-nLuc/akaLuc ratio relative to DMSO control (biosensor stabilization) (fold change); higher = more PARP1 biosensor stabilization (target engagement / stabilizer), active = hit call of the paper
- DETAILS: stock concentration (mM; final µM = stock mM x 1): 10; 24 h

COMPOUND: C[C@@H]1CCN(C(=O)CC#N)C[C@@H]1N(C)c1ncnc2[nH]ccc12 [Tofacitinib (citrate)]
PARP1 L713F-nLuc/akaLuc ratio: 0.775
//
COMPOUND: Cc1ncc(Cl)cc1NCc1ccc(C(=O)N[C@@H](CC2CCCC2)C(=O)NC2CC2)s1
PARP1 L713F-nLuc/akaLuc ratio: 0.585
//
COMPOUND: C#Cc1cccc(Nc2ncnc3cc(OCCOC)c(OCCOC)cc23)c1 [Erlotinib]
PARP1 L713F-nLuc/akaLuc ratio: 0.565
//
COMPOUND: CC[C@@H]1CN(C(=O)NCC(F)(F)F)C[C@@H]1c1cnc2cnc3[nH]ccc3n12 [Upadacitinib]
PARP1 L713F-nLuc/akaLuc ratio: 1.32
